Origin of values: ChEMBL document CHEMBL3301361

Field: fraction unbound at 5 h. Provide a value for each of the compounds that follow.
- ASSAY_PROCEDURE: in vitro
- EXPERIMENTAL_CONDITIONS: SD, HW or BN, rat, plasma
Where a name gives a salt, the structure may show the parent alone.

Reference set, count: 4
COMPOUND: COCCCC/C(=N\OCCN)c1ccc(C(F)(F)F)cc1 [FLUVOXAMINE MALEATE]
fraction unbound at 5 h: 0.224
--
COMPOUND: COC(=O)C1=C(C)NC(C)=C(C(=O)OC)C1c1ccccc1[N+](=O)[O-]
fraction unbound at 5 h: 0.0023
--
COMPOUND: COc1ccc(CCN2C(=O)N(NS(C)(=O)=O)C[C@H]2c2ccc(OC)cc2)cc1
fraction unbound at 5 h: 0.0568
--
COMPOUND: CN1CCN(CCCN2c3ccccc3Sc3ccc(C(F)(F)F)cc32)CC1
fraction unbound at 5 h: 0.007

Input line: # fraction unbound at 5 h lookup, item `COc1ccc2c(C)cc(N[C@H]3CC[C@H](NCc4cn(C)c5ccc(C#N)cc45)C3)nc2c1`
Output line: 0.0146
